Could you please report measured pIC50 for the items listed next?
# subject_of_test: Nav 1.5 (Homo sapiens (Human))
# Sequence (Q14524 whole entry): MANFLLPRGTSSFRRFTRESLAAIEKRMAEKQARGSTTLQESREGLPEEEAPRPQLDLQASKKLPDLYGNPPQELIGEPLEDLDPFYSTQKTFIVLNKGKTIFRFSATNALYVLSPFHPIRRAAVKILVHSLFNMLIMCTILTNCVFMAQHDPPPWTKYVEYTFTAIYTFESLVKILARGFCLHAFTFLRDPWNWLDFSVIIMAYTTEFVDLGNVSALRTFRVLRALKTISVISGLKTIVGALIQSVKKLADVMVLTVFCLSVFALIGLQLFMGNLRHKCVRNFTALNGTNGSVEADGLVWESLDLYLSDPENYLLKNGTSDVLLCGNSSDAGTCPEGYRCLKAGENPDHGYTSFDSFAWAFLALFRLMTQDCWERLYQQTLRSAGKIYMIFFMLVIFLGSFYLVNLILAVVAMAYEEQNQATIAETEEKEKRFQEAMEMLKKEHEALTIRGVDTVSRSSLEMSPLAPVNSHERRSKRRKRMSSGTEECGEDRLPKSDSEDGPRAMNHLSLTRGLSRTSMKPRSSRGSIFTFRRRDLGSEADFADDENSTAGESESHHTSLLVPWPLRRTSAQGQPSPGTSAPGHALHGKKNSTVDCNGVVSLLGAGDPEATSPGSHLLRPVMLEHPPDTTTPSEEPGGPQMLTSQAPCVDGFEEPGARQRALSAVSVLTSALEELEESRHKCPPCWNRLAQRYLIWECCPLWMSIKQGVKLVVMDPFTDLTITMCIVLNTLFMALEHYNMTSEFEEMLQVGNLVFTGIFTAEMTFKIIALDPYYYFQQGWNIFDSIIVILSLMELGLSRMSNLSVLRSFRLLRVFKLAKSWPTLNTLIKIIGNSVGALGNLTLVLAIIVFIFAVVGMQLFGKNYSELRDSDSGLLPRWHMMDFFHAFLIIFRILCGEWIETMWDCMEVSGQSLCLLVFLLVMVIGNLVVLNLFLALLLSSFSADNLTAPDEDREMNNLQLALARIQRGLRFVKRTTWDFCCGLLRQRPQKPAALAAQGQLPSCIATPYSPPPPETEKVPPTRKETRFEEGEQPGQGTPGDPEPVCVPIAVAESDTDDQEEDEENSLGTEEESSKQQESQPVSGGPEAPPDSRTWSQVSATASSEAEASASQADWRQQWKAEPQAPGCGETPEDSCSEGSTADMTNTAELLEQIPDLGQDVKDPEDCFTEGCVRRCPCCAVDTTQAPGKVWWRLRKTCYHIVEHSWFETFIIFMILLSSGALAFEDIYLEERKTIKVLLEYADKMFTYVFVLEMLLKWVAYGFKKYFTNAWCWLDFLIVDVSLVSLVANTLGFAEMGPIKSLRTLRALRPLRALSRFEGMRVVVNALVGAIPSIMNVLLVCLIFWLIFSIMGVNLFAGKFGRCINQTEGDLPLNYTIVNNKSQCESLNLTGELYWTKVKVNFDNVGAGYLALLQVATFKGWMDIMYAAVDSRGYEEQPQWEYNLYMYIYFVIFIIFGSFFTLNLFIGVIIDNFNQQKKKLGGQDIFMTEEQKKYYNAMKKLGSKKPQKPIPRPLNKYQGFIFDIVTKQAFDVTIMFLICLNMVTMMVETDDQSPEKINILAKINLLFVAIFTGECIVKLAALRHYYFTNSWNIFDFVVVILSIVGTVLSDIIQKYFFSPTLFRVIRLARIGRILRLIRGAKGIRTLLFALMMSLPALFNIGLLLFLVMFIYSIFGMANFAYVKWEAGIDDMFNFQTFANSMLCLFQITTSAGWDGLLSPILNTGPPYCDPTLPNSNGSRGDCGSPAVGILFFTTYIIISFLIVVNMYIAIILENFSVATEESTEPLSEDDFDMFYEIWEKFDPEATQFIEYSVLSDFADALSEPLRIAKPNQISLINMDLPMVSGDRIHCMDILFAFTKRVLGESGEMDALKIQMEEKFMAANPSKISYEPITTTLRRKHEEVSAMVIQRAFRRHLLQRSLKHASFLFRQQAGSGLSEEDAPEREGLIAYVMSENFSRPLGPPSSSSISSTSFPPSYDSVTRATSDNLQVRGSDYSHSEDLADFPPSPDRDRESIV
# assay_info: Nav 1.5 in vitro PX assay (PatchXpress whole cell voltage clamp)
# Type: cell-based
# measurement_parameters: 293 cells stably transfected with Nav 1.5; second part of table; read-out: Nav1.5 PX IC50
pIC50: −log10 of the molar value.

Query :: Provide one value: measured pIC50 of COc1cc(-c2cccc(F)c2)c(Cl)cc1-c1ncnc2cc(S(=O)(=O)Nc3ccncn3)ccc12 [Example 523]
Result :: 5.18

The following molecules each have a reported value; give each one's pIC50.
1. COc1cc(CC(C)(C)C)ccc1-c1nccc2cc(S(=O)(=O)Nc3ccncn3)ccc12 [Example 360]
2. COc1cc(C(F)F)c(F)cc1-c1nc(C)nc2cc(S(=O)(=O)Nc3nccs3)ccc12 [Example 514]
3. COc1cc(Oc2ccc(F)cc2)ccc1-c1nccc2cc(S(=O)(=O)Nc3ccncn3)ccc12 [Example 462]
4. COc1cc(-c2cc(F)cc(F)c2)ccc1-c1nccc2cc(S(=O)(=O)Nc3ccncn3)ccc12 [Example 449]
5. COc1cc(-c2cc(C)cc(F)c2)ccc1-c1nccc2cc(S(=O)(=O)Nc3ccncn3)ccc12 [Example 472]
6. COc1cc(C(F)F)ccc1-c1nc(C)nc2cc(S(=O)(=O)Nc3nccs3)ccc12 [Example 515]
7. COc1cc(-c2cccc(C(F)(F)F)c2)ccc1-c1nccc2cc(S(=O)(=O)Nc3ccncn3)ccc12 [Example 351]

Result ::
1: < 4.52; 2: < 4.52; 3: < 4.52; 4: < 4.52; 5: < 4.52; 6: < 4.52; 7: 4.58

====

# subject_of_test: UniProt Q15858
# Sequence (Q15858 whole entry): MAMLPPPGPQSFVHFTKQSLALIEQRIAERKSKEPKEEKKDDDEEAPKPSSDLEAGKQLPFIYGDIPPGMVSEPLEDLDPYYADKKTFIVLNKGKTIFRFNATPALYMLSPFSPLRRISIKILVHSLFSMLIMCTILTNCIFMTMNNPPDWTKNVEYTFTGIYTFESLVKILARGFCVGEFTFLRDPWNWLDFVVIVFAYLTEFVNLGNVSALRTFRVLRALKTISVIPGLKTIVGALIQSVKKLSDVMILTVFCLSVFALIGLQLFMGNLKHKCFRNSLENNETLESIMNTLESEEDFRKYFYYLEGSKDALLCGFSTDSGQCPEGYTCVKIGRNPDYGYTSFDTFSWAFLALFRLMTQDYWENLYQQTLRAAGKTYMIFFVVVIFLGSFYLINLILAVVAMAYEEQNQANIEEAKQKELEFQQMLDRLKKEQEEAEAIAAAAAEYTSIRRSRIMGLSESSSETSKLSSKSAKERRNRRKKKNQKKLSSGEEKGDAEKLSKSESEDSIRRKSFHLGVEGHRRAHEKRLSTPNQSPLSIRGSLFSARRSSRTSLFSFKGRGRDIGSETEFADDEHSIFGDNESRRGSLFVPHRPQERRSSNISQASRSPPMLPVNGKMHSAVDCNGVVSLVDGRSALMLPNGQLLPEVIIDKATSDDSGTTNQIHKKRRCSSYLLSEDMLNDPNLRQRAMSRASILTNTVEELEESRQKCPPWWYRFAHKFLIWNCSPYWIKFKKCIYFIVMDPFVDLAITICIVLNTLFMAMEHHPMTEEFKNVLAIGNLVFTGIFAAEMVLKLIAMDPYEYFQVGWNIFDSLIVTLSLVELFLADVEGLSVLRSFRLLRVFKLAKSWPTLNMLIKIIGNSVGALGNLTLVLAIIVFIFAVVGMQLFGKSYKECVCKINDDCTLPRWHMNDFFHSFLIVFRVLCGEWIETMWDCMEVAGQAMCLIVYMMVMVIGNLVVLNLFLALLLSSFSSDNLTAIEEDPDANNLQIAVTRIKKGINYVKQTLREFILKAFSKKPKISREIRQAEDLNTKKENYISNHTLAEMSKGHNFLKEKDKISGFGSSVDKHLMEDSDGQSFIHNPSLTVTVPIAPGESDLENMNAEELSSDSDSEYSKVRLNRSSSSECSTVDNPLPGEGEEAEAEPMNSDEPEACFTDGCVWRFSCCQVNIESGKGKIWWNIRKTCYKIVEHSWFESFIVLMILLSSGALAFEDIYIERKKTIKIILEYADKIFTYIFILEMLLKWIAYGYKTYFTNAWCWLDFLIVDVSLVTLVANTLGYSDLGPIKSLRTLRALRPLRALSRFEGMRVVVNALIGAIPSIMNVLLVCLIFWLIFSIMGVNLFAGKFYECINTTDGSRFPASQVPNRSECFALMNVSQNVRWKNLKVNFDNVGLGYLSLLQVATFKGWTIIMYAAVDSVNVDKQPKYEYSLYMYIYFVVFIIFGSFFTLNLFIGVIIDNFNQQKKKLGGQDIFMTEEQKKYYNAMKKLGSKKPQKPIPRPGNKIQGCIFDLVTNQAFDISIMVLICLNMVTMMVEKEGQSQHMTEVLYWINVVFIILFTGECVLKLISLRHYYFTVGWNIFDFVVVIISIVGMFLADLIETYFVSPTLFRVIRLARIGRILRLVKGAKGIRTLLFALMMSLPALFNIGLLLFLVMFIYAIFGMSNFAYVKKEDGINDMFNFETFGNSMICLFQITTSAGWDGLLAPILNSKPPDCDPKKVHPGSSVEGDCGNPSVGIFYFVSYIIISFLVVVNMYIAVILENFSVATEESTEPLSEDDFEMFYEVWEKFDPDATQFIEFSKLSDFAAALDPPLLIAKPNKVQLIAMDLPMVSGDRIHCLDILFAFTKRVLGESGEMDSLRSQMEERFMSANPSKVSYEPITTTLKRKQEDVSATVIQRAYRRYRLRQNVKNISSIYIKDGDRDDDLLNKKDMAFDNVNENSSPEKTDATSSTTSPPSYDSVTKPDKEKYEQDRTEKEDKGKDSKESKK
# assay_info: Nav 1.7 IWQ in vitro assay (IonWorks Quattro population patch-clamp)
# Assay type: cell-based
# measurement_parameters: at […]
# Procedure: Nav 1.7 or Nav 1.5 IWQ In Vitro Assay 293 Cells stably transfected with either Nav 1.7 or Nav 1.5 were recorded in population patch-clamp mode with the IonWorks® Quattro automated electrophysiology system in accordance with the manufacturer's specifications (Molecular Devices, LLC, Sunnyvale, Calif.). Sodium channel currents were measured in response to a train of depolarizations that induced successively greater inactivation. […]
Could you please report measured Nav1.7 Single Point Data IWQ (at […]) (%) for the items listed next?
Give bare numbers, in %.

Examples with answers:
Query :: Provide one value: measured Nav1.7 Single Point Data IWQ (at […]) (%) of Cc1noc(C)c1-c1nccc2cc(S(=O)(=O)Nc3ccncn3)ccc12
Result :: 29

Query :: Provide one value: measured Nav1.7 Single Point Data IWQ (at […]) (%) of Cc1cnc(OC[C@@H]2CCOC2)c(-c2nccc3cc(S(=O)(=O)Nc4nccs4)ccc23)c1
Result :: 20.6

Query :: Provide one value: measured Nav1.7 Single Point Data IWQ (at […]) (%) of O=S(=O)(Nc1ccncn1)c1ccc2c(OCc3ccc(N4CCOCC4)cc3)nccc2c1
Result :: 32

Query :: Provide one value: measured Nav1.7 Single Point Data IWQ (at […]) (%) of O=S(=O)(Nc1nccs1)c1ccc2c(N3CCCCC3c3ccccc3)ncnc2c1 (centres unmarked)
Result :: 31.2

Query :: Provide one value: measured Nav1.7 Single Point Data IWQ (at […]) (%) of COc1cc(C(F)(F)F)ccc1-c1nccc2cc(S(=O)(=O)n3ccc(N)n3)ccc12
Result :: 19.8

Query :: Provide one value: measured Nav1.7 Single Point Data IWQ (at […]) (%) of O=S(=O)(Nc1ccncn1)c1ccc2c(OCCn3ccnn3)nccc2c1
Result :: 23

Query :: Provide one value: measured Nav1.7 Single Point Data IWQ (at […]) (%) of CN1CCN(Cc2cccc(-c3nccc4cc(S(=O)(=O)Nc5ccncn5)ccc34)c2)CC1
Result :: 20.2

Query :: Provide one value: measured Nav1.7 Single Point Data IWQ (at […]) (%) of Cc1ccc2c(cnn2C)c1-c1nccc2cc(S(=O)(=O)Nc3ccncn3)ccc12
Result :: 27

The following compounds each have a reported value; give each one's Nav1.7 Single Point Data IWQ (at […]) (%).
1. O=S(=O)(Nc1ccncn1)c1ccc2c(N3CCCC(c4cccc(F)c4)C3)nccc2c1 (centres unmarked)
2. Cc1cnc(OCC2CCC2)c(-c2nccc3cc(S(=O)(=O)Nc4nccs4)ccc23)c1

Result ::
36.4
26.5

The following compounds each have a reported value; give each one's Nav1.7 Single Point Data IWQ (at […]) (%).
1. Cc1c(-c2nccc3cc(S(=O)(=O)Nc4ccncn4)ccc23)ccc2c1cnn2C
2. O=S(=O)(Nc1nccs1)c1ccc2c(N3CCCC3c3ccccc3)ncnc2c1 (centres unmarked)
3. COc1cc(-c2ncc(Cl)s2)ccc1-c1nccc2cc(S(=O)(=O)Nc3ccncn3)ccc12

Result ::
1. 40
2. 41.2
3. 24.7
